Give MFI for every item shown.
molecular target: T1, human ROR1 (hROR1) on cells (human, UniProt Q01973 30-937); test: FACS, Panc-1 cells; note: test concentration or dose not given here
T1 construct: whole, on cells; the cell line is named under assay; also called HEK293T-hROR1; 293T-hROR1
T1 sequence (Q01973 30-937): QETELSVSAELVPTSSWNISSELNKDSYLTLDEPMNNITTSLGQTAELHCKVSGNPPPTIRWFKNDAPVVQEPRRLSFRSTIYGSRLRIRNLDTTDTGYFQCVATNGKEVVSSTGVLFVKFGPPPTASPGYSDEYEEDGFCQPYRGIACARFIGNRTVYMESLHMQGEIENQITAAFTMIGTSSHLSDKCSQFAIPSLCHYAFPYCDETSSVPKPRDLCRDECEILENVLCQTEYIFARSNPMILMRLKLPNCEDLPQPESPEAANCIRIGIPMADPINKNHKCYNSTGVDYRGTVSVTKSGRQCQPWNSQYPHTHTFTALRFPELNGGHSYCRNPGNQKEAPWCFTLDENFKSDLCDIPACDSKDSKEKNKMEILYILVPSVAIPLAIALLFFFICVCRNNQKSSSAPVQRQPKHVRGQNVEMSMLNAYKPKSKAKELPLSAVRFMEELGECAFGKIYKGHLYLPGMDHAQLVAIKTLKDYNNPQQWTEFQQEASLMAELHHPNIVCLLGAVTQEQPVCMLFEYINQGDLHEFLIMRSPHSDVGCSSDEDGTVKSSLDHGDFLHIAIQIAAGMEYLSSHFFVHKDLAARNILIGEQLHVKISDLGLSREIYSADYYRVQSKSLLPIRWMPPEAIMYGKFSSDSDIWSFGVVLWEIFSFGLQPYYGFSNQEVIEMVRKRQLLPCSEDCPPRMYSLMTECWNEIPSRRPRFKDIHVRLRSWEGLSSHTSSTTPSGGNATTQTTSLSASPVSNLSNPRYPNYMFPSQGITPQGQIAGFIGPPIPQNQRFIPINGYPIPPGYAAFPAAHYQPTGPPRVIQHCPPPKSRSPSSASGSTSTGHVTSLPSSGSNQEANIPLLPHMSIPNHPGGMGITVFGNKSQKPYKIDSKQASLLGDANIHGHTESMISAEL
One number for each entry, in MFI.

Would you please look over these solved cases?
BINDER	MFI / MFI
PR002585 (antibody, human IgG1, kappa, V domains shown, PR001369 variant: VH G55A; hIgG1; also called anti-ROR1 1015M3-H10(H: G55A) hIgG1) VH: QVQLVESGGGVVQPGRSLRLSCAASGFTFSNYGIHWVRQAPGKGLEWVAIMWYDASNTDYADSVKGRFTISRDTSKNTLFLQMNSLRAEDTAVYYCAREQARSFDLWGRGTLVTVSS VL: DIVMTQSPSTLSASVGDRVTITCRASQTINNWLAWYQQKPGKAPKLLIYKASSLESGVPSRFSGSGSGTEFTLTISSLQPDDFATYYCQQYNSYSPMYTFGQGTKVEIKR	2610
PR002572 (antibody, human IgG1, kappa, V domains shown, PR001364 variant: VL N92Q; hIgG1; also called anti-ROR1 1015M3-D8(L: N92Q) hIgG1) VH: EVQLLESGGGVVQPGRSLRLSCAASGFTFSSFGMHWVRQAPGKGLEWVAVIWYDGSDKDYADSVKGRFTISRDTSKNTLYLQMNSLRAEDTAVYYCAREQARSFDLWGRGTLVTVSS VL: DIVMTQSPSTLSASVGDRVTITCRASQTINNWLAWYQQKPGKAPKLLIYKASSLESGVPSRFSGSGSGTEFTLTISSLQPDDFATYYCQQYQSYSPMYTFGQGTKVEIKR	3930

Consider the record given below.
For reference, reported MFI for PR002574 (antibody, human IgG1, kappa, V domains shown, PR001364 variant: VH D54E; hIgG1; also called anti-ROR1 1015M3-D8(H: D54E) hIgG1) VH: EVQLLESGGGVVQPGRSLRLSCAASGFTFSSFGMHWVRQAPGKGLEWVAVIWYEGSDKDYADSVKGRFTISRDTSKNTLYLQMNSLRAEDTAVYYCAREQARSFDLWGRGTLVTVSS VL: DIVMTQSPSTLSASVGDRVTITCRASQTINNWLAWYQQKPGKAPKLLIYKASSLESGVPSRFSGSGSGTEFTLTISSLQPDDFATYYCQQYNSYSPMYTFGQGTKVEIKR stands at 5870

FYI, the data here is from patent US20240010721A1.
